This collection of values is drawn from ChEMBL document CHEMBL5634098.

target: 5-hydroxytryptamine receptor 7 (Homo sapiens)
Sequence (P34969 whole entry): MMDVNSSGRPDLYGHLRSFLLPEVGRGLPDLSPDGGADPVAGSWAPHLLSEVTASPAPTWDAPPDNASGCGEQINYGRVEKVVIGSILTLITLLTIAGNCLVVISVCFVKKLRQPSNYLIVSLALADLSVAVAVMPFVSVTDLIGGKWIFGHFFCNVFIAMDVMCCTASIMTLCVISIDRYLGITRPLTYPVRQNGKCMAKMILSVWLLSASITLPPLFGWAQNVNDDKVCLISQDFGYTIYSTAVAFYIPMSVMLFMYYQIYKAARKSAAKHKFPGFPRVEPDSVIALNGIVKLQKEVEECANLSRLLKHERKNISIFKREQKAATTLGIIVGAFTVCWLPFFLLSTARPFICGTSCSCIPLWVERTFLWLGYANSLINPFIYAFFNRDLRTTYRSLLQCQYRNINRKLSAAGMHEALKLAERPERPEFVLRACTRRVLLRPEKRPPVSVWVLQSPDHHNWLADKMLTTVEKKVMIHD
# pKi per record follows
Scale: pKi equals -log10([C]), with [C] in mol/L.

Known results for compounds:
>  <COMPOUND>
CCC(Oc1cccc(F)c1F)c1nc(N)nc(N2CCN(C)CC2)n1 (stereo unspecified)

>  <ASSAYED_SYSTEM>
5-hydroxytryptamine receptor 7 (Homo sapiens)

>  <pKi>
4.94

$$$$
>  <COMPOUND>
CC(Oc1cc(F)ccc1Cl)c1nc(N)nc(N2CCN(C)CC2)n1 (stereo unspecified)

>  <ASSAYED_SYSTEM>
5-hydroxytryptamine receptor 7 (Homo sapiens)

>  <pKi>
5.14

$$$$
>  <COMPOUND>
CCC(Oc1cc(Cl)ccc1Cl)c1nc(Nc2ccccc2)nc(N2CCN(C)CC2)n1 (stereo unspecified)

>  <ASSAYED_SYSTEM>
5-hydroxytryptamine receptor 7 (Homo sapiens)

>  <pKi>
5.59

$$$$
>  <COMPOUND>
CCC(Oc1cc(Cl)cc(Cl)c1)c1nc(Nc2ccccc2)nc(N2CCN(C)CC2)n1 (stereo unspecified)

>  <ASSAYED_SYSTEM>
5-hydroxytryptamine receptor 7 (Homo sapiens)

>  <pKi>
4.79

$$$$
>  <COMPOUND>
CCC(Oc1cc(F)ccc1OC)c1nc(N)nc(N2CCN(C)CC2)n1 (stereo unspecified)

>  <ASSAYED_SYSTEM>
5-hydroxytryptamine receptor 7 (Homo sapiens)

>  <pKi>
4.35

$$$$

Query: Checklist item: pKi tested on 5-hydroxytryptamine receptor 7 (Homo sapiens), entry CCCCC(Oc1cc(Cl)cc(Cl)c1)c1nc(Nc2ccccc2)nc(N2CCN(C)CC2)n1 (stereo unspecified) , value?
Reply: 4.47

Query: For the record COc1ccc(F)cc1OC(C)c1nc(N)nc(N2CCN(C)CC2)n1 (stereo unspecified) , what value of pKi is listed for 5-hydroxytryptamine receptor 7 (Homo sapiens)?
Reply: 3.97

Query: Report pKi for CCC(Oc1cccc(Cl)c1F)c1nc(N)nc(N2CCN(C)CC2)n1 (stereo unspecified) tested on 5-hydroxytryptamine receptor 7 (Homo sapiens).
Reply: 5.36

Query: Entry CCC(Oc1cc(Cl)ccc1F)c1nc(N)nc(N2CCN(C)CC2)n1 (stereo unspecified) , system 5-hydroxytryptamine receptor 7 (Homo sapiens): what pKi was measured?
Reply: 4.82

Query: Please state recorded pKi (tested on 5-hydroxytryptamine receptor 7 (Homo sapiens)) of CCC(Oc1cc(C(F)(F)F)ccc1C(F)(F)F)c1nc(N)nc(N2CCN(C)CC2)n1 (stereo unspecified)
Reply: 4.74

Query: Missing value: pKi, 5-hydroxytryptamine receptor 7 (Homo sapiens), entry CCC(Oc1cc(Cl)cc(Cl)c1)c1nc(Nc2ccncc2)nc(N2CCN(C)CC2)n1 (stereo unspecified) . Fill in?
Reply: 4.90
